Target: UGT1A9 (Homo sapiens, UniProt O60656)
Sequence (O60656 26-530): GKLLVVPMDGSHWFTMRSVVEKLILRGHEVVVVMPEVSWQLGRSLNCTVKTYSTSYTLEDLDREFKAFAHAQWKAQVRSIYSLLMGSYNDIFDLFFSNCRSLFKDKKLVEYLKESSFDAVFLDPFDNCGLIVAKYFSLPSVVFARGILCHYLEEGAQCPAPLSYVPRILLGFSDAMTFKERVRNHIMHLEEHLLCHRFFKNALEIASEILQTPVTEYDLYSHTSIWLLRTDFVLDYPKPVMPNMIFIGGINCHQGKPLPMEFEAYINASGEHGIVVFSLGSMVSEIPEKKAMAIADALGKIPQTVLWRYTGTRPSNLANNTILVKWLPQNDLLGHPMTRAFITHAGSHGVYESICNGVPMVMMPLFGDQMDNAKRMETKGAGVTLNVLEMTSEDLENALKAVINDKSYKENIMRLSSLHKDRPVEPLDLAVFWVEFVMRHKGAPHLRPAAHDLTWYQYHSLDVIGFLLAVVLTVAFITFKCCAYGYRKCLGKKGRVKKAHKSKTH
Test: Inhibition of raloxifene glucuronidation by recombinant UGT1A9 Supersomes
Conditions: human, Supersomes with recombinant human UGT1A9, pH 7.5, probe raloxifene 50 μM, formation of glucuronide G2, % of control metabolism, raloxifene G2, UGT1A9; inhibitor 25 μM
This section presents compounds with their documented activity at 15 min, 25 µM values.
I only need the number, in %, no unit after it.

Here's what some known entries look like.
{"COMPOUND": "O=C(O[C@@H]1Cc2c(O)cc(O)cc2O[C@H]1c1cc(O)c(O)c(O)c1)c1cc(O)c(O)c(O)c1 [Gallocatechin gallate]", "activity at 15 min, 25 µM / %": 63}
{"COMPOUND": "CC/C(=C(/CC)c1ccc(O)cc1)c1ccc(O)cc1 [Diethylstilbestrol, reference compound]", "activity at 15 min, 25 µM / %": 309}
{"COMPOUND": "O=C(OC[C@H]1O[C@@H](OC(=O)c2cc(O)c(O)c(OC(=O)c3cc(O)c(O)c(O)c3)c2)[C@H](OC(=O)c2cc(O)c(O)c(OC(=O)c3cc(O)c(O)c(O)c3)c2)[C@@H](OC(=O)c2cc(O)c(O)c(OC(=O)c3cc(O)c(O)c(O)c3)c2)[C@@H]1OC(=O)c1cc(O)c(O)c(OC(=O)c2cc(O)c(O)c(O)c2)c1)c1cc(O)c(O)c(OC(=O)c2cc(O)c(O)c(O)c2)c1", "activity at 15 min, 25 µM / %": 19}

Now turn to the next compound.
Look up activity at 15 min, 25 µM: `O=c1c(O)c(-c2ccc(O)c(O)c2)oc2cc(O)cc(O)c12`
39

====

Target: UGT1A1 (Homo sapiens, UniProt P22309)
Sequence (P22309 26-533): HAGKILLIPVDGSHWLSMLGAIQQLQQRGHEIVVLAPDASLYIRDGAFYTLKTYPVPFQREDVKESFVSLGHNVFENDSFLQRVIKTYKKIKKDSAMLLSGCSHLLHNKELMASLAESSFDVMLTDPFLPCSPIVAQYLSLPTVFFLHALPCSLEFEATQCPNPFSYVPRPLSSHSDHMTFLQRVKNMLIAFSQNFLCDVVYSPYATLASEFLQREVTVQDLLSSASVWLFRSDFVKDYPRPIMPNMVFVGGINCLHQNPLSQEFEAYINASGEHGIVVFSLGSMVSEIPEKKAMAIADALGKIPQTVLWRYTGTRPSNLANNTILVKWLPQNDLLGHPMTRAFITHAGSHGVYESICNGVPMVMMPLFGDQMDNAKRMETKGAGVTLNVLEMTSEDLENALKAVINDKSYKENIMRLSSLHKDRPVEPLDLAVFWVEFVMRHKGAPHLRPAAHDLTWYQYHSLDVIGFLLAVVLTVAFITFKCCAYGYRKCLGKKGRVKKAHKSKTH
Assay: Inhibition of raloxifene glucuronidation by recombinant UGT1A1 Supersomes
Settings: human, Supersomes with recombinant human UGT1A1, pH 7.5, probe raloxifene 50 μM, formation of glucuronide G2, % of control metabolism, raloxifene G2, UGT1A1; inhibitor 2 μM
OUTCOME MEASURE: activity at 15 min, 2 μM

Look up activity at 15 min, 2 μM: `O=C(OC[C@H]1O[C@@H](OC(=O)c2cc(O)c(O)c(OC(=O)c3cc(O)c(O)c(O)c3)c2)[C@H](OC(=O)c2cc(O)c(O)c(OC(=O)c3cc(O)c(O)c(O)c3)c2)[C@@H](OC(=O)c2cc(O)c(O)c(OC(=O)c3cc(O)c(O)c(O)c3)c2)[C@@H]1OC(=O)c1cc(O)c(O)c(OC(=O)c2cc(O)c(O)c(O)c2)c1)c1cc(O)c(O)c(OC(=O)c2cc(O)c(O)c(O)c2)c1`
71%

====

Target: UGT1A3 (Homo sapiens)
Sequence (P35503 29-534): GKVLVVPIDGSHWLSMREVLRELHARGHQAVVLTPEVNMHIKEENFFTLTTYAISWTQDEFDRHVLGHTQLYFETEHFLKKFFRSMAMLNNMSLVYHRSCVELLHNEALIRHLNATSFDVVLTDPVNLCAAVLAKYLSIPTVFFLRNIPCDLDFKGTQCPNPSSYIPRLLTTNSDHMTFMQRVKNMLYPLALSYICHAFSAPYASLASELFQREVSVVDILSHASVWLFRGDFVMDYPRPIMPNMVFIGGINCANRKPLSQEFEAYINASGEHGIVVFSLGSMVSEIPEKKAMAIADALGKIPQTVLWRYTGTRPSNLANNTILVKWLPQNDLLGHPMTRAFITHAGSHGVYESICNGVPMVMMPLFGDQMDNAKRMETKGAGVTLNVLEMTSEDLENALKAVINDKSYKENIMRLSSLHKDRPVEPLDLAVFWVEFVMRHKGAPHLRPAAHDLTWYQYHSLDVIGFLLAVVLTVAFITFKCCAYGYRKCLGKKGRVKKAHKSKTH
Assay: Inhibition of raloxifene glucuronidation by recombinant UGT1A3 Supersomes
Settings: human, recombinant UGT1A3 Supersomes, pH 7.5, probe raloxifene 50 μM (formation of glucuronide G2), Inhibition of raloxifene glucuronidation, G2, UGT1A3, G2; inhibitor 50 μM; raloxifene 50 μM, 250 μg/ml Supersomes, 1 mM UDPGA, 15 min
Cut-off 10% on activity at 15 min, 50 µM, inclusive. At or above means true; below means false.

Field: example entries. Status: answers known.
{"MOLECULE": "O=c1c(O)c(-c2ccc(O)c(O)c2)oc2cc(O)cc(O)c12", "SYSTEM UNDER TEST": "UGT1A3 (Homo sapiens)", "CATEGORY": "true"}
{"MOLECULE": "CC/C(=C(/CC)c1ccc(O)cc1)c1ccc(O)cc1 [Diethylstilbestrol, reference compound]", "SYSTEM UNDER TEST": "UGT1A3 (Homo sapiens)", "CATEGORY": "true"}
{"MOLECULE": "CCCCCCCCOC(=O)c1cc(O)c(O)c(O)c1 [Octyl gallate]", "SYSTEM UNDER TEST": "UGT1A3 (Homo sapiens)", "CATEGORY": "true"}
{"MOLECULE": "O=C(OC[C@H]1O[C@@H](OC(=O)c2cc(O)c(O)c(OC(=O)c3cc(O)c(O)c(O)c3)c2)[C@H](OC(=O)c2cc(O)c(O)c(OC(=O)c3cc(O)c(O)c(O)c3)c2)[C@@H](OC(=O)c2cc(O)c(O)c(OC(=O)c3cc(O)c(O)c(O)c3)c2)[C@@H]1OC(=O)c1cc(O)c(O)c(OC(=O)c2cc(O)c(O)c(O)c2)c1)c1cc(O)c(O)c(OC(=O)c2cc(O)c(O)c(O)c2)c1", "SYSTEM UNDER TEST": "UGT1A3 (Homo sapiens)", "CATEGORY": "false"}

Then there is this molecule:
I'd appreciate it if you could say whether O=C(O[C@@H]1Cc2c(O)cc(O)cc2O[C@H]1c1cc(O)c(O)c(O)c1)c1cc(O)c(O)c(O)c1 [Gallocatechin gallate] has activity at 15 min, 50 µM at least equal to 10%.
true

====

Biological target: UGT1A3 (Homo sapiens)
Assay: Inhibition of raloxifene glucuronidation by recombinant UGT1A3 Supersomes
Details: human, Supersomes with recombinant human UGT1A3, pH 7.5, probe raloxifene 50 μM, formation of glucuronide G2, % of control metabolism, raloxifene G2, UGT1A3; inhibitor 10 μM
OUTCOME MEASURE: activity at 15 min, 10 µM (%)
I only need the number, in %, no unit after it.

Here's what some known entries look like.
{"COMPOUND": "CC/C(=C(/CC)c1ccc(O)cc1)c1ccc(O)cc1 [Diethylstilbestrol, reference compound]", "activity at 15 min, 10 µM / %": 74}
{"COMPOUND": "O=c1c(O)c(-c2ccc(O)c(O)c2)oc2cc(O)cc(O)c12", "activity at 15 min, 10 µM / %": 56}
{"COMPOUND": "O=C(OC[C@H]1O[C@@H](OC(=O)c2cc(O)c(O)c(OC(=O)c3cc(O)c(O)c(O)c3)c2)[C@H](OC(=O)c2cc(O)c(O)c(OC(=O)c3cc(O)c(O)c(O)c3)c2)[C@@H](OC(=O)c2cc(O)c(O)c(OC(=O)c3cc(O)c(O)c(O)c3)c2)[C@@H]1OC(=O)c1cc(O)c(O)c(OC(=O)c2cc(O)c(O)c(O)c2)c1)c1cc(O)c(O)c(OC(=O)c2cc(O)c(O)c(O)c2)c1", "activity at 15 min, 10 µM / %": 64}

Now turn to the next compound.
Look up activity at 15 min, 10 µM: CCCCCCCCOC(=O)c1cc(O)c(O)c(O)c1 [Octyl gallate]
60

====

Test system: UGT enzymes of human liver microsomes
Construct: other: liver 062101
Experiment: Inhibition of 2ME2 glucuronidation (MG1, MG2) in human liver microsomes
Type: biochemical
Settings: liver 062101; 2ME2 50 μM; inhibitor 50 μM
This section presents compounds with their documented residual metabolism (% of control), 2ME2 MG2 values.

{"COMPOUND": "CCCCCCCCOC(=O)c1cc(O)c(O)c(O)c1 [Octyl gallate]", "EXPERIMENTAL VALUE": "94 (4) %"}
{"COMPOUND": "O=C1C[C@@H](c2ccc(O)cc2)Oc2cc(O)cc(O)c21", "EXPERIMENTAL VALUE": "26 (5) %"}
{"COMPOUND": "C#C[C@]1(O)CC[C@H]2[C@@H]3CCc4cc(O)ccc4[C@H]3CC[C@@]21C [17-α-Ethinylestradiol, 17-α-ethinylestradiol, reference compound]", "EXPERIMENTAL VALUE": "41 (3) %"}
{"COMPOUND": "O=C(OC[C@H]1O[C@@H](OC(=O)c2cc(O)c(O)c(OC(=O)c3cc(O)c(O)c(O)c3)c2)[C@H](OC(=O)c2cc(O)c(O)c(OC(=O)c3cc(O)c(O)c(O)c3)c2)[C@@H](OC(=O)c2cc(O)c(O)c(OC(=O)c3cc(O)c(O)c(O)c3)c2)[C@@H]1OC(=O)c1cc(O)c(O)c(OC(=O)c2cc(O)c(O)c(O)c2)c1)c1cc(O)c(O)c(OC(=O)c2cc(O)c(O)c(O)c2)c1", "EXPERIMENTAL VALUE": "28 (1) %"}
{"COMPOUND": "O=C(O)Cc1ccccc1Nc1c(Cl)cccc1Cl [Diclofenac, reference compound]", "EXPERIMENTAL VALUE": "60 (1) %"}
{"COMPOUND": "O=C(c1ccc(OCCN2CCCCC2)cc1)c1c(-c2ccc(O)cc2)sc2cc(O)ccc12 [Raloxifene, raloxifene, reference compound]", "EXPERIMENTAL VALUE": "41 (2) %"}
{"COMPOUND": "O=c1c(O)c(-c2ccc(O)c(O)c2)oc2cc(O)cc(O)c12", "EXPERIMENTAL VALUE": "68 (3) %"}
{"COMPOUND": "O=C(O[C@@H]1Cc2c(O)cc(O)cc2O[C@@H]1c1cc(O)c(O)c(O)c1)c1cc(O)c(O)c(O)c1 [Epigallocatechin gallate]", "EXPERIMENTAL VALUE": "71 (1) %"}

Now turn to the next compound.
Look up residual metabolism (% of control), 2ME2 MG2: O=C(O[C@@H]1Cc2c(O)cc(O)cc2O[C@@H]1c1ccc(O)c(O)c1)c1cc(O)c(O)c(O)c1 [Epicatechin gallate]
69 (2) %
